studyTarget: T1, His-tagged, full-length PCSK9 (human, UniProt Q8NBP7 31-692)
T1 construct: secreted PCSK9 is autocatalytically cleaved into prodomain and catalytic domain + CRD (from S153), which stay associated; also called His-PCSK9; proprotein convertase subtilisin/kexin type 9; not shown: His tag
T1 sequence (Q8NBP7 31-692 limits assumed): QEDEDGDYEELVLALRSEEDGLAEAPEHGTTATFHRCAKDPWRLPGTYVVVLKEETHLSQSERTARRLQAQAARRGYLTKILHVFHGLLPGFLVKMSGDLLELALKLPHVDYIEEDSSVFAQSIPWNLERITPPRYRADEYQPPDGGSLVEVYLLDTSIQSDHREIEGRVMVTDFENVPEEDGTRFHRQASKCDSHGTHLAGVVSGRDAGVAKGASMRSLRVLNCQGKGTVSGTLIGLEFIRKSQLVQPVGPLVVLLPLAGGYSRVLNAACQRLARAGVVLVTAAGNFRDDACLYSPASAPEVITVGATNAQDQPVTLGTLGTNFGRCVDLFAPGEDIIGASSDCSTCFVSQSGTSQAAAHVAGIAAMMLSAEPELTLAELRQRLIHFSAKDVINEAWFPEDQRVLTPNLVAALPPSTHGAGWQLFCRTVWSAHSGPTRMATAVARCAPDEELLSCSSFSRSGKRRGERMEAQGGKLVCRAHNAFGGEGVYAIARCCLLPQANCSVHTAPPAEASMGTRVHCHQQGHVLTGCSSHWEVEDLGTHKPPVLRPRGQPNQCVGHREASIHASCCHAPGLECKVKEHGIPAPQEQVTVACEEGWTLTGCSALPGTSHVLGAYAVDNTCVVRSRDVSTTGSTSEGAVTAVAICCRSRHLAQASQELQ
runDescription: TR-FRET competition (PCSK9/EGF(A) assay); competitor EGF(A)-Fc;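 also: proximity signal from anti-His APC on PCSK9 paired with anti-Fc europium on the Fc ligand, read as normalized TR-FRET ratio across compound dilutions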
pIC50: −log10 of the molar value. Bridge positions count the residues as written; N and C are the ends.
parameterMeasured: pIC50

*Q* For the binder Ac-CRLPWNLQRIGLGC-NH2 (disulfide 1-14; SMILES CC[C@H](C)[C@@H]1NC(=O)[C@H](CCCNC(=N)N)NC(=O)[C@H](CCC(N)=O)NC(=O)[C@H](CC(C)C)NC(=O)[C@H](CC(N)=O)NC(=O)[C@H](Cc2c[nH]c3ccccc23)NC(=O)[C@@H]2CCCN2C(=O)[C@H](CC(C)C)NC(=O)[C@H](CCCNC(=N)N)NC(=O)[C@@H](NC(C)=O)CSSC[C@@H](C(N)=O)NC(=O)CNC(=O)[C@H](CC(C)C)NC(=O)CNC1=O) [Compound 80 (Ac-CRLPWNLQRIGLGC-NH2)] , what pIC50 is on record?
*A* < 4.30

*Q* Record request: pIC50 value, item Ac-CRLPWNLQRIGLPC-NH2 (disulfide 1-14; SMILES CC[C@H](C)[C@@H]1NC(=O)[C@H](CCCNC(=N)N)NC(=O)[C@H](CCC(N)=O)NC(=O)[C@H](CC(C)C)NC(=O)[C@H](CC(N)=O)NC(=O)[C@H](Cc2c[nH]c3ccccc23)NC(=O)[C@@H]2CCCN2C(=O)[C@H](CC(C)C)NC(=O)[C@H](CCCNC(=N)N)NC(=O)[C@@H](NC(C)=O)CSSC[C@@H](C(N)=O)NC(=O)[C@@H]2CCCN2C(=O)[C@H](CC(C)C)NC(=O)CNC1=O) [Compound 32 (Ac-CRLPWNLQRIGLPC-NH2)]
*A* < 4.30
